SYSTEM NAME: T1, Sulfotyrosine CCR2b biotin peptide (human)
T1 construct: also called CCR2b peptide
T1 peptide: TTFFD[sY]D[sY]GAPSHGGK(Biotin)
METHOD: ELISA, 50 nM mAb
Non-standard residues stand in square brackets, D forms with d. No end group written: not given here. *: point of attachment. Biotin = O=C1N[C@H]2[C@H](CS[C@H]2CCCCC(=O)*)N1; sY = N[C@@H](Cc1ccc(OS(=O)(=O)O)cc1)C(=O)O
REPORTED PROPERTY: binding normalized to PSGL-1
Give the figure only, with no unit attached.

Answered examples (2):
BINDER	binding normalized to PSGL-1
09A08 (antibody, IgG4, V domains shown) VH: QVQLVQSGAAVKKPGESLKISCKGSGYTFSNYWIGWVRQMPGKGLEWMGIIYPGDSDTRYSPSFQGQVTISADKSISTAYLQWSSLKASDTAMYYCARHIVGPPKSAFDIWGQGTMVTVSS VL: DIVMTQTPLSLPVTLGQPASISCSSSQGLQKRDGNTYLNWFQQRPGQSPRRLIYKVSNRDSGVPDRFSGSGSGTDFTLKISRVEAEDVGVYYCMQGTHWPWTFGQGTRVEIK	0.08
02E06 (antibody, IgG4, V domains shown) VH: QVQLVQSGAEVKKPGASVKVSCKASGYSFTDYYMHWVRQAPGQGLEWMGWMNPNSGNTGYAQTFQGRVTMTRNTSISTAYMELSSLRSEDTAVYYCARGRRVRGTPTFEYWGQGTLVTVSS VL: QSVVTQPPSASGTPGQRVTISCSGRSSNIGSYTVNWFQHLPGTGPKLLIYGNNQRPSGVPGRFSGSKSGTSASLAISGLQSNDEATYYCAAWDDSLNGHYVFGTGTKVTVL	1.19

// below: binding normalized to PSGL-1 requested for another binder
Q: Find the recorded binding normalized to PSGL-1 belonging to 05E08 (antibody, IgG4, V domains shown) VH: EVQLVQSGGGVVQPGRSLRLSCAASGFTFSTYAMHWVRQAPGKGLEWVAVISYDGSNKYYADSVKGRFTISRDNSRNTLFLQMNSLRDEDTAVYYCAKRGTMIRGERSLDFWGQGTLVTVSS VL: AIQMTQSPSFLSASVGDRVTITCRASQGINSWLAWYQQKPGTAPNLLIHAASTLQSGVPSRFSGSRSGTEFTLTISSLQPEDFATYYCQQLQSYPLTFGQGTRLEIK and report it.
Result: 0.85

Reference source for all entries: patent US20220396632A1
